Test system: MT2
measurement_description: Cytotoxicity against human MT2 cells after 4 days by XTT assay
Assay type: cell-based
condition_notes: mt2, 96 h
measurement_kind: CC50

Would you please look over these solved cases?
structure_smiles_string | CC50
Cc1cccc2cc(CN(Cc3ccco3)C(=O)c3ccccc3)c(=O)[nH]c12 | > 67.1 µM
Cc1ccc2[nH]c(=O)c(CN(Cc3ccccc3)C(=O)c3ccco3)cc2c1 | > 67.1 µM
Cc1ccc2[nH]c(=O)c(CN(Cc3ccco3)C(=O)c3ccc(F)c(F)c3)cc2c1 | > 24.5 µM
Cc1cccc2cc(CN(Cc3ccccc3)C(=O)c3cccc(Cl)c3)c(=O)[nH]c12 | > 60 µM
COc1ccc2[nH]c(=O)c(CN(Cc3ccco3)C(=O)c3ccc(C)cc3)cc2c1 | > 31 µM

Dear reader, for each entry below, please note its CC50.
1. Cc1ccc2[nH]c(=O)c(CN(Cc3cccs3)C(=O)c3cccs3)cc2c1
2. Cc1ccc2[nH]c(=O)c(CN(Cc3ccco3)C(=O)c3ccc(Cl)c(Cl)c3)cc2c1
3. Cc1ccccc1C(=O)N(Cc1ccco1)Cc1cc2cccc(C)c2[nH]c1=O

1: > 64 µM; 2: 70.7 µM; 3: > 64.7 µM

Dear reader, for each entry below, please note its CC50.
1. COc1ccc2[nH]c(=O)c(CN(Cc3cccs3)C(=O)c3cccc(C)c3)cc2c1
2. Cc1cccc2cc(CN(Cc3ccco3)C(=O)c3ccccc3F)c(=O)[nH]c12
3. Cc1ccc2[nH]c(=O)c(CN(Cc3ccco3)C(=O)c3ccc(F)c(Cl)c3)cc2c1
4. Cc1ccc2[nH]c(=O)c(CN(Cc3ccco3)C(=O)c3ccc(Cl)c(N4CCCCC4)c3)cc2c1

1: 25 µM; 2: > 64 µM; 3: > 23.5 µM; 4: > 20.4 µM
